Can you tell me Post-emerge phytotoxicity rating RICE (crop damage) for the items I'm about to list?
Test system: upland rice (Oryza sp., var. Tebonnet, RICE)
ASSAY: Post-emerge test, crop safety
Assay type: in vivo
CONDITION: Rate 63 g ai/ha; rating scale 0-100 (0 no damage, 100 complete death); 14 days after application
Keep the answer to the number alone.

Q: Request the reported Post-emerge phytotoxicity rating RICE (crop damage) associated with CCOC(=O)C(Br)Cc1c(OC)c(Cl)cc(F)c1-n1c(=O)cc(C(F)(F)F)n(C)c1=O (single isomer, unassigned) [14-32]
Result: 0

Q: Field entry: COc1c(Cl)cc(F)c(-n2c(=O)cc(C(F)(F)F)n(C)c2=O)c1CC(C)(Cl)C(=O)OC(C(F)(F)F)C(F)(F)F (stereo not shown)
Result: 60

Q: Field entry: COc1c(Cl)cc(F)c(-n2c(=O)cc(C(F)(F)F)n(C)c2=O)c1CC(C)(Cl)C(=O)OCCSC (stereo not shown)
Result: 70

Q: Field entry: COc1c(Cl)cc(F)c(-n2c(=O)cc(C(F)(F)F)n(C)c2=O)c1CC(Cl)C(=O)OCC(F)(F)C(F)(F)C(F)(F)F (single isomer, unassigned) [14-24]
Result: 10

Q: Field entry: CCOC(=O)CCc1c(OC)c(Cl)cc(F)c1-n1c(=O)cc(C(F)(F)F)n(C)c1=O
Result: 40

Q: Field entry: CCCCCCOC(=O)C(Cl)Cc1c(OC)c(Cl)cc(F)c1-n1c(=O)cc(C(F)(F)F)n(C)c1=O (single isomer, unassigned)
Result: 0

Q: Field entry: COCCOC(=O)C(Cl)Cc1c(OC)c(Cl)cc(F)c1-n1c(=O)cc(C(F)(F)F)n(C)c1=O (stereo not shown)
Result: 10

---

Test system: sicklepod (Cassia obtusifolia, CASOB)
ASSAY: Pre-emerge test, greenhouse herbicide activity screening
Type: in vivo
CONDITION: pre-emerge, 63 g ai/ha, 14 days after application, scale 0-100
Can you tell me phytotoxicity rating CASOB for the items I'm about to list?
Keep the answer to the number alone.

Q: Request the reported phytotoxicity rating CASOB associated with COc1c(Cl)cc(F)c(-n2c(=O)cc(C(F)(F)F)n(C)c2=O)c1NC(=O)CCc1cc(C)ccc1C [2-132]
Result: 50

Q: Field entry: COc1c(Cl)cc(F)c(-n2c(=O)cc(C(F)(F)F)n(C)c2=O)c1NC(=O)C=Cc1ccccc1F [2-125]
Result: 30

Q: Field entry: COc1c(Cl)cc(F)c(-n2c(=O)cc(C(F)(F)F)n(C)c2=O)c1NC(=O)c1ccc2c(C#N)cccc2c1 [2-163]
Result: 10

Q: Field entry: COc1cc2ccccc2cc1C(=O)Nc1c(OC)c(Cl)cc(F)c1-n1c(=O)cc(C(F)(F)F)n(C)c1=O [2-152]
Result: 0

Q: Field entry: COc1c(Cl)cc(Cl)c(-n2c(=O)cc(C(F)(F)F)n(C)c2=O)c1NC(=O)c1ccc2ccccc2c1 [2-144]
Result: 0

Q: Field entry: COc1c(Br)cc(F)c(-n2c(=O)cc(C(F)(F)F)n(C)c2=O)c1NC(=O)C=Cc1ccccc1 [2-175]
Result: 30

Q: Field entry: COc1c(Br)cc(F)c(-n2c(=O)cc(C(F)(F)F)n(C)c2=O)c1N(C(=O)C=Cc1ccccc1)C(=O)C=Cc1ccccc1 [2-176]
Result: 0

Q: Field entry: COc1c(Cl)cc(F)c(-n2c(=O)cc(C(F)(F)F)n(C)c2=O)c1NC(=O)COc1ccc(Cl)cc1 [2-135]
Result: 10

---

Tested on: upland rice (Oryza sp., var. Tebonnet, RICE)
ASSAY: Pre-emerge test, crop safety
Assay type: in vivo
CONDITION: 63 g ai/ha; crop damage rating 0-100, 14 days after application
ASSAY METRIC: Pre-emerge Herbicidal Activity RICE
Keep the answer to the number alone.

Q: Request the reported Pre-emerge Herbicidal Activity RICE associated with COc1c(Cl)cc(F)c(-n2c(=O)cc(C(F)(F)F)n(C)c2=O)c1NC(=O)OC(C)c1ccccc1 (centres unmarked)
Result: 20

Q: Field entry: COc1c(Cl)ccc(-n2c(=O)cc(C(F)(F)F)n(C)c2=O)c1NC(=O)c1ccc2ccccc2c1
Result: 40

Q: Field entry: COc1c(Cl)cc(F)c(-n2c(=O)cc(C(F)(F)F)n(C)c2=O)c1NC(=O)Oc1c(C)cc(C)cc1C
Result: 0

Q: Field entry: COc1c(Cl)cc(F)c(-n2c(=O)cc(C(F)(F)F)n(C)c2=O)c1NC(=O)OCc1ccc2ccccc2c1
Result: 0

Q: Field entry: COc1c(Cl)cc(F)c(-n2c(=O)cc(C(F)(F)F)n(C)c2=O)c1NC(=O)Oc1ccccc1C(C)(C)C
Result: 10

Q: Field entry: Cn1c(C(F)(F)F)cc(=O)n(-c2ccc(Cl)cc2NC(=O)C2CC2)c1=O
Result: 0

Q: Field entry: Cn1c(C(F)(F)F)cc(=O)n(-c2ccc(OC(F)(F)F)cc2NC(=O)c2ccc3ccccc3c2)c1=O
Result: 10

Q: Field entry: COc1c(Cl)cc(F)c(-n2c(=O)cc(C(F)(F)F)n(C)c2=O)c1NC(=O)OCc1ccc(F)c(F)c1
Result: 90

---

Can you tell me phytotoxicity rating CORN for the items I'm about to list?
Tested on: field corn (Zea mays L., var. Dekalb 535, CORN)
ASSAY: Pre-emerge test, crop safety
Format: in vivo
CONDITION: pre-emerge, 250 g ai/ha, 14 days after application, rating scale 0-100
Keep the answer to the number alone.

Q: Request the reported phytotoxicity rating CORN associated with CCOC(=O)C(Cl)Cc1c(OCC)c(Cl)cc(F)c1-n1c(=O)cc(C(F)(F)F)n(C)c1=O (centres unmarked) [14-63]
Result: 0

Q: Field entry: CCOc1c(Cl)cc(F)c(-n2c(=O)cc(C(F)(F)F)n(C)c2=O)c1Cl
Result: 5

Q: Field entry: Cn1c(C(F)(F)F)cc(=O)n(-c2ccc(Cl)cc2/C=C/c2ccc3ccccc3c2)c1=O
Result: 0

Q: Field entry: COc1c(Cl)cc(F)c(-n2c(=O)cc(C(F)(F)F)n(C)c2=O)c1SCCO
Result: 0

Q: Field entry: CCOC(=O)CC(C)=NNc1c(OC)c(Cl)cc(F)c1-n1c(=O)cc(C(F)(F)F)n(C)c1=O
Result: 100

Q: Field entry: COc1c(Cl)cc(F)c(-n2c(=O)cc(C(F)(F)F)n(C)c2=O)c1NN=Cc1ccc(F)cc1F
Result: 95

Q: Field entry: COc1c(Cl)cc(F)c(-n2c(=O)cc(C(F)(F)F)n(C)c2=O)c1CC(C)(Cl)C(=O)OCCSC (centres unmarked)
Result: 40

Q: Field entry: CCOC(=O)C(Cl)(C#N)Cc1c(OC)c(Cl)cc(F)c1-n1c(=O)cc(C(F)(F)F)n(C)c1=O (centres unmarked)
Result: 0

---

Test system: upland rice (Oryza sp., var. Tebonnet, RICE)
ASSAY: Pre-emerge test, crop safety
Assay type: in vivo
CONDITION: pre-emerge, 250 g ai/ha, 14 days after application, rating scale 0-100
ASSAY METRIC: phytotoxicity rating RICE
Keep the answer to the number alone.

Q: Request the reported phytotoxicity rating RICE associated with COc1c(Cl)cc(F)c(-n2c(=O)cc(C(F)(F)F)n(C)c2=O)c1NN=CC(C)c1ccccc1 (centres unmarked)
Result: 100

Q: Field entry: O=c1cc(C(F)(F)F)[nH]c(=O)n1-c1c(Cl)cc(C(F)(F)F)cc1Cl [compound 2, reference compound]
Result: 15

Q: Field entry: COc1c(Cl)cc(F)c(-n2c(=O)cc(C(F)(F)F)n(C)c2=O)c1NN=C(C(F)(F)F)C(F)(F)F
Result: 100

Q: Field entry: COc1c(Cl)cc(F)c(-n2c(=O)cc(C(F)(F)F)n(C)c2=O)c1NNC(=O)c1ccc2ccccc2c1
Result: 99

Q: Field entry: CCOC(=O)N(C)C(=O)NNc1c(OC)c(Cl)cc(F)c1-n1c(=O)cc(C(F)(F)F)n(C)c1=O
Result: 100

Q: Field entry: CCOC(=O)NNc1c(OC)c(Cl)cc(F)c1-n1c(=O)cc(C(F)(F)F)n(C)c1=O
Result: 100

Q: Field entry: CCOC(=O)C(Cl)Cc1c(OC)c(Cl)cc(F)c1-c1nn(C)c(C(F)(F)F)c1Cl (centres unmarked)
Result: 10

Q: Field entry: COc1c(Cl)cc(F)c(-n2c(=O)cc(C(F)(F)F)n(C)c2=O)c1SC
Result: 30

---

System: field corn (Zea mays L., var. Dekalb 535, CORN)
ASSAY: Pre-emerge test, crop safety
Assay type: in vivo
CONDITION: pre-emerge, 63 g ai/ha, 14 days after application, rating scale 0-100
Procedure: A standard greenhouse herbicide activity screening system was used to evaluate the herbicidal efficacy and crop safety of these test compounds. […] At 14 days after application of the test materials, phytotoxicity ratings were recorded. […]
ASSAY METRIC: phytotoxicity rating CORN
Keep the answer to the number alone.

Q: Request the reported phytotoxicity rating CORN associated with CCOc1c(Cl)cc(F)c(-n2c(=O)cc(C(F)(F)F)n(C)c2=O)c1Cl
Result: 0

Q: Field entry: COc1c(Cl)cc(F)c(-n2c(=O)cc(C(F)(F)F)n(C)c2=O)c1NN=CC(C)c1ccccc1 (centres unmarked)
Result: 80

Q: Field entry: COc1c(Cl)cc(F)c(-n2c(=O)cc(C(F)(F)F)n(C)c2=O)c1NN=Cc1ccc2ccccc2c1
Result: 25

Q: Field entry: COc1c(Cl)cc(F)c(-n2c(=O)cc(C(F)(F)F)n(C)c2=O)c1CC(C)(Cl)C(=O)OCC1CCCO1 (centres unmarked)
Result: 10

Q: Field entry: CCCOC(=O)C(Cl)Cc1c(OCC)c(Cl)cc(F)c1-n1c(=O)cc(C(F)(F)F)n(C)c1=O (centres unmarked) [14-66]
Result: 0

Q: Field entry: COc1c(Cl)cc(F)c(-n2c(=O)cc(C(F)(F)F)n(C)c2=O)c1NNC(=O)Nc1ccc(F)cc1F
Result: 0

Q: Field entry: CCOC(=O)NNc1c(OC)c(Cl)cc(F)c1-n1c(=O)cc(C(F)(F)F)n(C)c1=O
Result: 95

Q: Field entry: COc1c(Cl)cc(F)c(-n2c(=O)cc(C(F)(F)F)n(C)c2=O)c1SCCO
Result: 0
